What GI50 was measured for each of the following?
Tested on: panel of 55 breast cancer cell lines
Test method notes: Cell growth inhibition assay (Cell Titer Glo, 72 h, 9 doses; GI50, TGI, LC50)
Format: cell-based, human
Details: cell line SUM52PE; value is the negative log10 of mol/L
Field format: numeric only.

Using the record for N.N.O=C([O-])C1(C(=O)[O-])CCC1.[Pt+2] , report its GI50.
4.71

State the recorded GI50 for this entry: CC(/C=C/C(=O)NO)=C\[C@@H](C)C(=O)c1ccc(N(C)C)cc1
5.57

Look up GI50: CC(C)Oc1ccc(C(=O)N[C@H](CNC(=O)CN(C)C)Cc2ccc(-c3cn4cccc([C@H](C)O)c4n3)cc2)cc1Cl
7.64

If you can, please state the reported GI50 value of O=C1NC(=O)/C(=C/c2ccc(-c3ccc(F)cc3O)o2)S1 .
4.44

Quick check: GI50 of COc1ccc(C2=N[C@@H](c3ccc(Cl)cc3)[C@@H](c3ccc(Cl)cc3)N2C(=O)N2CCNC(=O)C2)c(OC(C)C)c1 ?
4.73

So what's the measured GI50 for this one? O=c1[nH]c(=O)n([C@H]2C[C@H](O)[C@@H](CO)O2)cc1F
4.40

I would be grateful if you could share the reported GI50 for CCNCCCCNCCCCNCCCCNCCCCNCC=CCNCCCCNCCCCNCCCCNCCCCNCC.Cl.Cl.Cl.Cl.Cl.Cl.Cl.Cl.Cl.Cl (stereo in doubt) .
6.79

# input compound: CC(C)[C@H](CO)Nc1nc(Nc2cccc(Cl)c2)c2ncn(C(C)C)c2n1 ; wanted: its GI50
4.79

* * *

System: panel of 55 breast cancer cell lines
Test method notes: Cell growth inhibition assay (Cell Titer Glo, 72 h, 9 doses; GI50, TGI, LC50)
Type: cell-based, human
Details: Homo sapiens, HCC1500, cell line HCC1500; read-out: GI50 (converted)
I'd appreciate it if you could supply GI50 values for the items below.
Just the number in µM, nothing appended.

Name the reported GI50 value associated with the compound CCC1=C[C@@H]2CN(C1)Cc1c([nH]c3ccccc13)[C@@](C(=O)OC)(c1cc3c(cc1OC)N(C)[C@H]1[C@@](O)(C(=O)OC)[C@H](OC(C)=O)[C@]4(CC)C=CCN5CC[C@]31[C@@H]54)C2
0.011

What does the data say about its GI50? Entry: COc1cc([C@@H]2c3cc4c(cc3[C@@H](O[C@@H]3O[C@@H]5CO[C@@H](C)O[C@H]5[C@H](O)[C@H]3O)[C@H]3COC(=O)[C@H]23)OCO4)cc(OC)c1O [Etoposide]
1.41

Data request, read-out GI50, for COc1cccc2c1C(=O)c1c(O)c3c(c(O)c1C2=O)C[C@@](O)(C(=O)CO)C[C@@H]3O[C@H]1C[C@H](N)[C@@H](O)[C@H](C)O1 [Epirubicin]
0.245

I am curious: what GI50 value has been reported for C/C(=C\c1csc(C)n1)[C@@H]1C[C@@H]2O[C@]2(C)CCC[C@H](C)[C@H](O)[C@@H](C)C(=O)C(C)(C)[C@@H](O)CC(=O)N1 [Ixabepilone] ?
0.00324

Request the reported GI50 associated with CCN(CC)CCNC(=O)c1c(C)[nH]c(/C=C2\C(=O)Nc3ccc(F)cc32)c1C [Sunitinib Malate]
6.46

I would be grateful if you could share the reported GI50 for CC(=O)O[C@H]1C(=O)[C@@]2(C)[C@H]([C@H](OC(=O)c3ccccc3)[C@]3(O)C[C@H](OC(=O)[C@H](O)[C@@H](NC(=O)c4ccccc4)c4ccccc4)C(C)=C1C3(C)C)[C@]1(OC(C)=O)CO[C@@H]1C[C@@H]2O .
0.00794

Recorded GI50 of Nc1nc2[nH]cc(CCc3ccc(C(=O)N[C@@H](CCC(=O)O)C(=O)O)cc3)c2c(=O)[nH]1 , please.
0.501

What measured GI50 goes with Cn1cnc2c(F)c(Nc3ccc(Br)cc3Cl)c(C(=O)NOCCO)cc21 ?
50.1

Given the entry NS(=O)(=O)OC[C@@H]1C[C@@H](n2ccc3c(N[C@H]4CCc5ccccc54)ncnc32)C[C@@H]1O , report its measured GI50.
0.0117

Item under review: CS(=O)(=O)CCNCc1ccc(-c2ccc3ncnc(Nc4ccc(OCc5cccc(F)c5)c(Cl)c4)c3c2)o1 . Reported GI50?
16.6

State the recorded GI50 for this entry: CCN(CC)CCCCNc1ncc2cc(-c3cc(OC)cc(OC)c3)c(NC(=O)NC(C)(C)C)nc2n1
24.5

Recorded GI50 of COC1=C2C[C@@H](C)C[C@H](OC)[C@H](O)[C@@H](C)/C=C(\C)[C@H](OC(N)=O)[C@@H](OC)/C=C\C=C(/C)C(=O)NC(=CC1=O)C2=O , please.
0.155

Would you mind telling me what GI50 value was observed for Cc1cncc2cccc(S(=O)(=O)N3CCCN(C(=O)CN)C[C@@H]3C)c12 ?
66.1

Entry COc1cc2ncnc(Nc3ccc(F)c(Cl)c3)c2cc1OCCCN1CCOCC1 has what GI50?
8.13

May I ask what GI50 has been recorded for CO[C@H]1C[C@@H]2CC[C@@H](C)[C@@](O)(O2)C(=O)C(=O)N2CCCC[C@H]2C(=O)O[C@H]([C@H](C)C[C@@H]2CC[C@@H](OC(=O)C(C)(CO)CO)[C@H](OC)C2)CC(=O)[C@H](C)/C=C(\C)[C@@H](O)[C@@H](OC)C(=O)[C@H](C)C[C@H](C)/C=C/C=C/C=C/1C ?
24.5

Which GI50 value belongs to C#Cc1cccc(Nc2ncnc3cc(OCCOC)c(OCCOC)cc23)c1 ?
6.46

Quick one: GI50 for COc1cc(Nc2c(C#N)cnc3cc(OCCCN4CCN(C)CC4)c(OC)cc23)c(Cl)cc1Cl ?
2.57

Which GI50 value is on record for CC(=O)O[C@@]12CO[C@@H]1C[C@H](O)[C@@]1(C)C(=O)[C@H](O)C3=C(C)[C@@H](OC(=O)[C@H](O)[C@@H](NC(=O)OC(C)(C)C)c4ccccc4)C[C@@](O)([C@@H](OC(=O)c4ccccc4)[C@H]21)C3(C)C ?
0.00275

I would be grateful if you could share the reported GI50 for O=C1c2ccccc2-[n+]2ccc3c([nH]c4ccccc43)c21 .
0.224

Could you tell me which GI50 is on file for CC/C(=C(\c1ccccc1)c1ccc(OCCN(C)C)cc1)c1ccccc1 ?
105

// lookup GI50 for COc1cccc2c1C(=O)c1c(O)c3c(c(O)c1C2=O)C[C@@](O)(C(=O)CO)C[C@@H]3O[C@H]1C[C@H](N)[C@H](O)[C@H](C)O1
0.2

// query GI50 value for entry CN(C)C/C=C/C(=O)Nc1cc2c(Nc3ccc(F)c(Cl)c3)ncnc2cc1O[C@H]1CCOC1
0.339

Field request: GI50 | item: CC[C@@]1(O)C(=O)OCc2c1cc1n(c2=O)Cc2cc3c(CN(C)C)c(O)ccc3nc2-1
0.0145

# GI50 lookup, item CNC(=O)c1cc(Oc2ccc(NC(=O)Nc3ccc(Cl)c(C(F)(F)F)c3)cc2)ccn1
178

Which value of GI50 has been reported for Cc1[nH]c2ccccc2c1CCNCc1ccc(/C=C/C(=O)NO)cc1 in the records?
0.162

Would you kindly share the measured GI50 for Cc1ccc(C(=O)N(CCCN)[C@@H](c2nc3cc(Cl)ccc3c(=O)n2Cc2ccccc2)C(C)C)cc1 ?
0.0339

* * *

System: panel of 55 breast cancer cell lines
Test method notes: Cell growth inhibition assay (Cell Titer Glo, 72 h, 9 doses; GI50, TGI, LC50)
Format: cell-based, human
Details: cell line CAMA1; value is the negative log10 of mol/L
Simple rule here: GI50 less than 4 is Satisfied, otherwise Not satisfied.

For this molecule, is GI50 lower than 4? Cc1cc(Nc2cc(N3CCN(C)CC3)nc(Sc3ccc(NC(=O)C4CC4)cc3)n2)n[nH]1
Not satisfied

Is it true that GI50 reported for CC(C)[C@H](CO)Nc1nc(Nc2cccc(Cl)c2)c2ncn(C(C)C)c2n1 is less than 4?
Satisfied

Please let me know if COc1cc2ncnc(Nc3cccc(Cl)c3)c2cc1OC shows GI50 below 4.
Not satisfied

Is it true that GI50 reported for Cc1cc(C(=O)N2CCN(c3cccc(Cl)c3)CC2)n(-c2ccccc2)n1 [XRP44X] is less than 4?
Not satisfied

* * *

System: panel of 55 breast cancer cell lines
Test method notes: Cell growth inhibition assay (Cell Titer Glo, 72 h, 9 doses; GI50, TGI, LC50)
Assay type: cell-based, human
Details: Homo sapiens, SK-BR-3, SKBR3 cell line; censored GI50 values; read-out: GI50 (converted)
Readout kind: GI50 (nM)
Dear colleague, please return just the value in nM, with no unit written.

Name the recorded GI50 for CCN(CC)CCNC(=O)c1c(C)[nH]c(/C=C2\C(=O)Nc3ccc(F)cc32)c1C [Sunitinib Malate] .
6760

So what's the measured GI50 for this one? CC(C)C[C@H](NC(=O)[C@H](Cc1ccccc1)NC(=O)c1cnccn1)B(O)O
7.59

State the recorded GI50 for this entry: CN(C)C/C=C/C(=O)Nc1cc2c(Nc3ccc(F)c(Cl)c3)ncnc2cc1O[C@H]1CCOC1
13.2

Name the reported GI50 value associated with the compound COC1=C2C[C@@H](C)C[C@H](OC)[C@H](O)[C@@H](C)/C=C(\C)[C@H](OC(N)=O)[C@@H](OC)/C=C\C=C(/C)C(=O)NC(=CC1=O)C2=O
16.2

Could you tell me which GI50 is on file for CCC1=C[C@@H]2CN(C1)Cc1c([nH]c3ccccc13)[C@@](C(=O)OC)(c1cc3c(cc1OC)N(C)[C@H]1[C@@](O)(C(=O)OC)[C@H](OC(C)=O)[C@]4(CC)C=CCN5CC[C@]31[C@@H]54)C2 ?
17.4

Give its GI50 value. Item: Cc1[nH]c2ccccc2c1CCNCc1ccc(/C=C/C(=O)NO)cc1
55

Requested read-out: GI50. Entry: O=C1c2ccccc2-[n+]2ccc3c([nH]c4ccccc43)c21
224

GI50 lookup needed for COc1cc([C@@H]2c3cc4c(cc3[C@@H](O[C@@H]3O[C@@H]5CO[C@@H](C)O[C@H]5[C@H](O)[C@H]3O)[C@H]3COC(=O)[C@H]23)OCO4)cc(OC)c1O [Etoposide] , thanks.
1200

Which value of GI50 has been reported for Cn1c(=O)n(-c2ccc(C(C)(C)C#N)cc2)c2c3cc(-c4cnc5ccccc5c4)ccc3ncc21 in the records?
589

Fill blank: measured GI50 of the compound CNC(=O)c1cc(Oc2ccc(NC(=O)Nc3ccc(Cl)c(C(F)(F)F)c3)cc2)ccn1 is ____.
70800
